testSystem: ER in MCF-7 cells (Homo sapiens (Human), UniProt P03372)
Sequence (P03372 whole entry): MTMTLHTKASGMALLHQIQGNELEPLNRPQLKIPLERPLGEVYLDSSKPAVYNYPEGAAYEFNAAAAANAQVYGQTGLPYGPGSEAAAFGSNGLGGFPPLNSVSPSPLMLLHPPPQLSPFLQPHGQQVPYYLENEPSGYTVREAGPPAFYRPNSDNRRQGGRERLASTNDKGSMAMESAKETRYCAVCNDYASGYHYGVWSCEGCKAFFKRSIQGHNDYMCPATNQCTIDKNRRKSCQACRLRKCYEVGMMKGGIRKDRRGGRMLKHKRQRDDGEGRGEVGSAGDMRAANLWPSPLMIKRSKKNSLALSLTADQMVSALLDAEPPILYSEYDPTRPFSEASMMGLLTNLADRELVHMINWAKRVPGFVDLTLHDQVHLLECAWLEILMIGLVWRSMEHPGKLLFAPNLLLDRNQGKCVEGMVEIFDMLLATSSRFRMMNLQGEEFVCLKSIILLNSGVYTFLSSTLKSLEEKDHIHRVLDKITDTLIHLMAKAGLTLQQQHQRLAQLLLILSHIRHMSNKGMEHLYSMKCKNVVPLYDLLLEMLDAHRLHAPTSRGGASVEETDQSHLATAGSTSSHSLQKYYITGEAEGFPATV
assayOverview: In-cell Western (ICW) ER degradation assay in MCF-7 cells
Type: cell-based
settings: MCF-7, ER degradation, 16 hrs treatment; read-out: MCF7 DC50
I'd be grateful if you could share measured DC50 for these entries.

compound	measureName	result
COc1cc(N2CCC3(CC2)CC(CN2CCC(c4ccc(N[C@H]5CCC(=O)NC5=O)c(F)c4)CC2)C3)ccc1[C@@H]1c2ccc(O)cc2CC[C@@H]1c1ccccc1 (single isomer, unassigned) [Compound A109]	DC50	< 1 nM
COc1cc(N2CCC3(CC2)CC(CN2CCC4(CC2)COc2c4ccc4c2CN([C@H]2CCC(=O)NC2=O)C4=O)C3)ccc1[C@@H]1c2ccc(O)cc2CC[C@@H]1c1ccccc1 [Compound A95]	DC50	< 1 nM
COc1cc(N2CCC(CN3CCC4(CC3)COc3c4ccc4c3CN([C@H]3CCC(=O)NC3=O)C4=O)CC2)ccc1[C@H]1c2ccc(O)cc2CC[C@H]1c1ccccc1 [Compound A36]	DC50	< 1 nM

List the reported DC50 of each compound below.
1. Cc1cc2c(c3c1C(=O)N([C@H]1CCC(=O)NC1=O)C3)OCC21CCN(C[C@H]2CCC3(CCN(c4ccc([C@@H]5c6ccc(O)cc6CC[C@@H]5c5ccccc5)cc4)CC3)OC2)CC1 [Compound A210]
2. COc1cc(N2CCC3(CC2)CC(CN2CCC(c4ccc(N[C@H]5CCC(=O)NC5=O)cc4)CC2)C3)c(F)cc1[C@@H]1c2ccc(O)cc2CC[C@@H]1c1ccccc1 (single isomer, unassigned) [Compound A30]
3. COc1c([C@@H]2c3ccc(O)cc3CC[C@@H]2c2ccccc2)ccc(N2CCC(CN3CCN4c5cc6c(cc5OC[C@@H]4C3)C(=O)N([C@H]3CCC(=O)NC3=O)C6)CC2)c1F (single isomer, unassigned) [Compound A171]
4. COc1cc(N2CCC(CN3CCN4c5ccc6c(c5OC[C@@H]4C3)CN([C@@H]3CCC(=O)NC3=O)C6=O)CC2)ccc1[C@@H]1c2ccc(O)cc2CC[C@@H]1c1ccccc1 (stereo in doubt) [Compound A23]
5. O=C1CC[C@H](N2Cc3c(ccc4c3OC[C@H]3CN(C5CN(CCOc6ccc([C@@H]7c8ccc(O)cc8CC[C@@H]7c7ccccc7)cc6)C5)CCN43)C2=O)C(=O)N1 [Compound A79]
6. O=C1CC[C@H](N2Cc3cc4c(cc3C2=O)OC[C@@H]2CN(CC3CC5(CCN(c6ncc([C@@H]7c8ccc(O)cc8CC[C@@H]7c7ccccc7)cn6)CC5)C3)CCN42)C(=O)N1 (single isomer, unassigned) [Compound A144]

Response:
1: < 1 nM; 2: < 1 nM; 3: < 1 nM; 4: 10 to 100 nM; 5: < 1 nM; 6: 1 to 10 nM

---

testSystem: ER in MCF-7 cells (Homo sapiens (Human))
assayOverview: In-cell Western (ICW) ER degradation assay in MCF-7 cells
Assay type: cell-based
settings: MCF7, read-out: MCF7 Dmax, MCF-7, maximal ER degradation, 16 hrs treatment
measureName: Dmax

# count of solved cases: 4
structure	testSystem	Dmax
O=C1CC[C@H](N2Cc3c(ccc4c3OCC43CCN(CC4CCN(c5ccc([C@@H]6c7ccc(O)cc7CC[C@@H]6c6ccccc6)cc5)CC4)CC3)C2=O)C(=O)N1	ER in MCF-7 cells (Homo sapiens (Human))	50 to 75%
COc1cc(N2CCC3(CC2)CC(CN2CCC4(CC2)COc2c4ccc4c2CN([C@H]2CCC(=O)NC2=O)C4=O)C3)c(F)cc1[C@@H]1c2ccc(O)cc2CC[C@@H]1c1ccccc1	ER in MCF-7 cells (Homo sapiens (Human))	> 75%
COc1cc(N2CC3(CCC(CN4CCC5(CC4)COc4cc6c(cc45)CN([C@H]4CCC(=O)NC4=O)C6=O)CC3)C2)c(F)cc1[C@@H]1c2ccc(O)cc2CC[C@@H]1c1ccccc1	ER in MCF-7 cells (Homo sapiens (Human))	50 to 75%
O=C1CC[C@H](N2Cc3c(ccc4c3OCC43CCN(CCCOC4CN(c5ccc([C@@H]6c7ccc(O)cc7CC[C@@H]6c6ccccc6)cc5)C4)CC3)C2=O)C(=O)N1	ER in MCF-7 cells (Homo sapiens (Human))	50 to 75%

As a next step, examine the compound that follows.
Request: Dear colleague, please send me the reported Dmax for `COc1cc(N2CCC3(CC[C@@H](CN4CCC5(CC4)COc4c5cc(Cl)c5c4CN([C@H]4CCC(=O)NC4=O)C5=O)CO3)CC2)c(F)cc1[C@@H]1c2ccc(O)cc2CC[C@@H]1c1ccccc1` when you can.
Response: > 75%

---

testSystem: ER in MCF-7 cells (Homo sapiens (Human))
assayOverview: In-cell Western (ICW) ER degradation assay in MCF-7 cells
Format: cell-based
settings: MCF-7, ER degradation, 16 hrs treatment; read-out: MCF7 DC50
For each record, write down the corresponding DC50.

compound	DC50
COc1cc2c(c3c1C(=O)N([C@H]1CCC(=O)NC1=O)C3)OCC21CCN(C[C@@H]2CCC3(CCN(c4ccc([C@@H]5c6ccc(O)cc6CC[C@@H]5c5ccccc5)cc4)CC3)OC2)CC1	< 1 nM
O=C1CC[C@H](N2Cc3c(ccc4c3OC[C@H]3CN(CC5CCC6(CC5)CN(c5ncc([C@H]7c8ccc(O)cc8CC[C@H]7c7ccccc7)cn5)C6)CCN43)C2=O)C(=O)N1 (single isomer, unassigned)	1 to 10 nM
O=C1CC[C@H](N2Cc3c(ccc4c3OCC43CCN(C[C@H]4COC5(C4)CN(c4ccc([C@@H]6c7ccc(O)cc7CC[C@@H]6c6ccccc6)cc4)C5)CC3)C2=O)C(=O)N1	< 1 nM
O=C1CC[C@H](N2Cc3c(ccc4c3OCC43CCN(CC4CC5(CCN(c6ncc([C@@H]7c8ccc(O)cc8CC[C@@H]7c7ccccc7)cn6)CC5)C4)CC3)C2=O)C(=O)N1	< 1 nM

Turning now to a further compound:
Request: Provide only the value of recorded DC50 for `O=C1CC[C@H](N2Cc3c(ccc4c3OC[C@H]3CN(CC5CCN(c6ccc([C@@H]7c8ccc(O)cc8CC[C@@H]7c7ccccc7)cc6)CC5)CCN43)C2=O)C(=O)N1`
Response: < 1 nM

---

testSystem: ER in MCF-7 cells (Homo sapiens (Human), UniProt P03372)
assayOverview: In-cell Western (ICW) ER degradation assay in MCF-7 cells
Assay type: cell-based
settings: MCF7, MCF-7, maximal ER degradation, 16 hrs treatment; read-out: MCF7 Dmax
measureName: Dmax

Worked cases, Dmax given:
compound	Dmax
COc1cc(C(=O)NC2CCC(=O)NC2=O)ncc1N1CCN(CC2CCN(c3ccc([C@@H]4c5ccc(O)cc5CC[C@@H]4c4ccccc4)cc3)CC2)CC1 (stereo partly drawn) [Compound A5]	50 to 75%
O=C1CC[C@H](Nc2ccc(C3CCN(C[C@@H]4COC5(CCN(c6ccc([C@@H]7c8ccc(O)cc8CC[C@@H]7c7ccccc7)cc6)CC5)C4)CC3)c(F)c2)C(=O)N1 (single isomer, unassigned) [Compound A61]	< 25%

// switching to the query compound
Request: Please indicate Dmax recorded for COc1cc(N2CC3(CCC(CN4CCN5c6cc7c(cc6OC[C@@H]5C4)C(=O)N([C@H]4CCC(=O)NC4=O)C7)CC3)C2)c(F)cc1[C@@H]1c2ccc(O)cc2CC[C@@H]1c1ccccc1 (single isomer, unassigned) [Compound A164]
Response: > 75%

---

testSystem: ER in MCF-7 cells (Homo sapiens (Human))
assayOverview: In-cell Western (ICW) ER degradation assay in MCF-7 cells
Assay type: cell-based
settings: MCF7, MCF-7, maximal ER degradation, 16 hrs treatment; read-out: MCF7 Dmax
Text: In-cell Western (ICW) assays in MCF-7 and T47D cell lines. Day 3: After 16 hrs of compounds treatment, cells were fixed by 4% PFA and permeabilized with elution buffer (0.1% Triton X-100 in 1% PBS Solution). Subsequently, cells were blocked with Intercept (PBS) Blocking Buffer (Li-COR, Odyssey Blocking Buffer), and were stained with ER (1:500, Cell signaling) primary antibody for overnight at cold room. […]
measureName: Dmax

Previously resolved entries follow.
molecule	Dmax
COc1cc(N2CCC(CCN3CCN4c5cc6c(cc5OC[C@@H]4C3)C(=O)N([C@H]3CCC(=O)NC3=O)C6)CC2)c(F)cc1[C@@H]1c2ccc(O)cc2CC[C@@H]1c1ccccc1	> 75%
O=C1CCC(NC(=O)c2ccc(C3CCN(CC4CCN(c5ccc([C@@H]6c7ccc(O)cc7CC[C@@H]6c6ccccc6)cc5)CC4)CC3)cn2)C(=O)N1 (stereo partly drawn)	25 to 50%

Would you kindly look at the next entry?
Request: # return recorded Dmax for input `COc1cc(N2CCC3(CC2)C[C@H](CN2CCN4c5ccc6c(c5OC[C@H]4C2)CN([C@H]2CCC(=O)NC2=O)C6=O)CO3)c(F)cc1[C@@H]1c2ccc(O)cc2CC[C@@H]1c1ccccc1`
Response: > 75%
